- Assayed Target: hKCa3.1 (Homo sapiens)
- Assay: KCa3.1 current, whole-cell patch-clamp
- Type: cell-based
Experimental Endpoint: IC50 (µM)
Report the value in µM with no unit label.

[ask] Tell me IC50 reported for c1ccc(C(c2ccccc2)c2ccncc2)cc1
[reply] 8.6

====

- Assayed Target: hKCa3.1 (Homo sapiens, UniProt O15554)
- Assay: KCa3.1 current, whole-cell patch-clamp
- Type: cell-based
- Measurement Parameters: IC50 KCa3.1, running text
Experimental Endpoint: IC50 (µM)
Please state the figure in µM; there is no need to write the unit.

[ask] Report measured IC50; entry is COc1ccccc1C(Nc1nccs1)(c1ccccc1)c1ccccc1
[reply] 10

====

- Assayed Target: Cx50 GJ channels (Mus musculus)
- Assay type: cell-based
- Measurement Parameters: 10 μM
Experimental Endpoint: effect on Cx50 junctional current

Previously resolved entries follow.
Compound	Experimental Endpoint	Obs Value
FC(F)(F)Oc1cccc(NC(c2ccccc2)(c2ccccc2)c2ccccc2Cl)c1 [T102]	effect on Cx50 junctional current	no effect
C[C@@H]1O[C@@H](OC[C@H]2O[C@@H](Oc3c(-c4ccc(O)c(O)c4)oc4cc(O)cc(O)c4c3=O)[C@H](O)[C@@H](O)[C@@H]2O)[C@H](O)[C@H](O)[C@H]1O [rutin, reference compound]	effect on Cx50 junctional current	significant inhibition
Clc1ccccc1C(Oc1ccccc1)(c1ccccc1)c1ccccc1 [T107]	effect on Cx50 junctional current	no effect
FC(F)(F)Oc1ccc(NC(c2ccccc2)(c2ccccc2)c2ccccc2Cl)cc1 [T150]	effect on Cx50 junctional current	no effect
O=c1c(O)c(-c2ccc(O)c(O)c2)oc2cc(O)cc(O)c12 [quercetin, reference compound]	effect on Cx50 junctional current	no effect
COc1ccc(CCN2CCC(Nc3nc4ccccc4n3Cc3ccc(F)cc3)CC2)cc1 [Astemizole, reference compound]	effect on Cx50 junctional current	significant inhibition
FC(F)(F)Oc1ccccc1NC(c1ccccc1)(c1ccccc1)c1ccccc1Cl [T104]	effect on Cx50 junctional current	no effect

[ask] Read the entry Clc1ccccc1C(Nc1ccccc1)(c1ccccc1)c1ccccc1 [T109] and write its reported effect on Cx50 junctional current.
[reply] no effect

====

Below: a set of entries, each annotated with reported log10(IC50).
- Assayed Target: UniProtKB O15554
- Assay: KCa3.1 current, whole-cell patch-clamp
- Assay type: cell-based
- Measurement Parameters: IC50 KCa3.1 (μM), Table A1
Heads up, the numbers here are log10 of IC50 in µM units.

Observe how each entry below is paired with its result.
OC(c1ccccc1)(c1ccccc1)c1ccccc1 -0.30
c1ccc(C(c2ccccc2)c2ccccc2)cc1 0.57
OC(c1ccccc1)(c1ccccc1)c1ccc(Cl)cc1 -0.28
O=C(O)CC(c1ccccc1)(c1ccccc1)c1ccccc1 1.40

[ask] Look up log10(IC50) of OC(c1ccccc1)(c1ccccc1)c1cccc(Cl)c1 and report it.
[reply] -0.26

====

Each entry below carries its measured IC50, system: Cx50 GJ channels (Mus musculus).
Please don't drop the unit; write it after the number.

[ask] Give measured IC50 for OC(c1ccccc1)(c1ccccc1)c1ccccc1 (Cx50 GJ channels (Mus musculus)).
[reply] 1000 nM

[ask] Report IC50 from Cx50 GJ channels (Mus musculus) testing of OC(c1ccccc1)(c1ccccc1)c1ccncc1
[reply] 10000 nM

[ask] State measured IC50 of the compound COc1ccc(NC(c2ccccc2)(c2ccccc2)c2ccccc2Cl)cc1 with Cx50 GJ channels (Mus musculus).
[reply] 10000 nM

[ask] Recall the reported IC50 of OC(c1ccccc1)(c1ccccc1)c1cccc(Cl)c1 on Cx50 GJ channels (Mus musculus) and write it down.
[reply] 3600 nM

[ask] Fill: IC50 (Cx50 GJ channels (Mus musculus)) for this compound c1ccc(C(c2ccccc2)c2ccncc2)cc1
[reply] 4000 nM

[ask] Provide IC50, recorded with Cx50 GJ channels (Mus musculus), of Ic1ccccc1C(Nc1nccs1)(c1ccccc1)c1ccccc1
[reply] 2400 nM

====

- Assayed Target: Kv11.1 (hERG) (Homo sapiens)
- Sequence (Q12809 whole entry): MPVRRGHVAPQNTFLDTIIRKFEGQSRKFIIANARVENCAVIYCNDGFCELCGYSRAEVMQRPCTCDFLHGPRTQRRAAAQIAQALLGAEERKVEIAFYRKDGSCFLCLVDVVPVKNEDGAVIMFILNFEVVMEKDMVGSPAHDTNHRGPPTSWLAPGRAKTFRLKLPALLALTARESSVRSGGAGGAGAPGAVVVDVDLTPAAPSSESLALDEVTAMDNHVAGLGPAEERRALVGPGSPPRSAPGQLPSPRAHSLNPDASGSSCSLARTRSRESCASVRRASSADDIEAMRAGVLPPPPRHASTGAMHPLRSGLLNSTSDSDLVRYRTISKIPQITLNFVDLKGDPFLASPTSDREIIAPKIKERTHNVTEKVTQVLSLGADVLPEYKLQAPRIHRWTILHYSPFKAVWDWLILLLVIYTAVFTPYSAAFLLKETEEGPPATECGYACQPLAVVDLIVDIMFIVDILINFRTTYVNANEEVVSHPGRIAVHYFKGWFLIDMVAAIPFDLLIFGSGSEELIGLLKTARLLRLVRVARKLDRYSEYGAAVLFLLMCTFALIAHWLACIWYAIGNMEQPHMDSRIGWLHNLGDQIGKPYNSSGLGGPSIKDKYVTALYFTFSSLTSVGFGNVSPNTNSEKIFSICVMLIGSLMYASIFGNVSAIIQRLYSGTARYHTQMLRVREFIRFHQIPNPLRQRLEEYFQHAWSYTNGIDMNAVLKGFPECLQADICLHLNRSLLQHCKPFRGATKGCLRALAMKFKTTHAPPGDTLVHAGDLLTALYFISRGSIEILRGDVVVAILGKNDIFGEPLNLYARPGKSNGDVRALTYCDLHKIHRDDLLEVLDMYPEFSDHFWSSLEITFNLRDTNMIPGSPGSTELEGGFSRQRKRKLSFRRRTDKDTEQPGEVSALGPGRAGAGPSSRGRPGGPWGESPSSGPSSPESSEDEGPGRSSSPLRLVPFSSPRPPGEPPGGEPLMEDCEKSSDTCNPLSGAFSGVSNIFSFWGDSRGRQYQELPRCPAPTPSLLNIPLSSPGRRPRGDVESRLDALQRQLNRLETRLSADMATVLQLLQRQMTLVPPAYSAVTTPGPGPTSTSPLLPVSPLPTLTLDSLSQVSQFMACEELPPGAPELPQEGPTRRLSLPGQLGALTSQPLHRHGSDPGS
- Assay: Kv11.1
- Assay type: cell-based
- Measurement Parameters: HEK-293 cells stably expressing Kv11.1 (hERG)
Experimental Endpoint: inhibition at 10 µM

COc1ccccc1C(Nc1nccs1)(c1ccccc1)c1ccccc1 42%

Then there is this compound:
[ask] Determine its reported inhibition at 10 µM: Ic1ccccc1C(Nc1nccs1)(c1ccccc1)c1ccccc1
[reply] 27%

====

- Assayed Target: Cx50 GJ channels (Mus musculus, UniProt P28236)
- Sequence (P28236 whole entry): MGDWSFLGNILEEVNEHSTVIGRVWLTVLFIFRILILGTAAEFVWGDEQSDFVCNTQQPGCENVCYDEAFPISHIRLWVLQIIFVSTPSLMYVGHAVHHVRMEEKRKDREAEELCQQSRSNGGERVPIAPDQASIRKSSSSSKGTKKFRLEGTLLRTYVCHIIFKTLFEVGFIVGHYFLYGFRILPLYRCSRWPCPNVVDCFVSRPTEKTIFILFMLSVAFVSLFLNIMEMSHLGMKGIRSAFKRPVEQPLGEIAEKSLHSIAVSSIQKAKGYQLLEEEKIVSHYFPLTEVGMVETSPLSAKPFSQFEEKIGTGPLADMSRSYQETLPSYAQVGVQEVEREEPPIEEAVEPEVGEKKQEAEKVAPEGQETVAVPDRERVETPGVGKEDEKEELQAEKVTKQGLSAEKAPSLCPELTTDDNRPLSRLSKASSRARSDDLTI
Experimental Endpoint: IC50 (µM)
Number in µM, nothing else.

COc1ccccc1C(Nc1nccs1)(c1ccccc1)c1ccccc1 1.2
OC(c1ccccc1)(c1ccccc1)c1ccc(Cl)cc1 2.8

[ask] Read off the recorded IC50 for c1ccc(C(c2ccccc2)c2ccccc2)cc1
[reply] 0.9

Hello, the source for this data is paper PMC3368247, in case you need it.
